Molecular target: T1, human MSLN-hFc protein (Acro, Cat. No. MSN-H5253) (human, UniProt Q13421 296-580)
T1 construct: bought protein; also called human MSLN full-length protein; not shown: human Fc (hFc) of the bought protein
T1 sequence (Q13421 other isoform, or with tags, fused parts or gaps limits assumed): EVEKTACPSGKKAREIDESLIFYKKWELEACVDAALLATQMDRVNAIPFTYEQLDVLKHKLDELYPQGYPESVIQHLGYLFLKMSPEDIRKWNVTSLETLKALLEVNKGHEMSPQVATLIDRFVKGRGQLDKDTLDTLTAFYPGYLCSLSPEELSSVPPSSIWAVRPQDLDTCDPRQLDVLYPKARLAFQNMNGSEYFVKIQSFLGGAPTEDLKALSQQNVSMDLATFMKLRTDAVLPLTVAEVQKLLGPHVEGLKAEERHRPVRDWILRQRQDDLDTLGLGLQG
Assay: ELISA, coated human MSLN-hFc, antibody 0.1 nM
Property measured: OD450 nm
Lab note: jot the number down without any unit.

Consider the worked cases shown below.
Consider the binder F2.39.3-H6 (scFv, not shown: small tags and cut ends, also called S009-F2.39.3 humanized VH2 + VL2) scFv: EVQLVQSGAEVKKPGASVKVSCKASGYTFTNYWMHWVRQAPGQGLEWMGNINPSSGDSYYNERFMSRVTMTVDKSTSTAYMELSSLRSEDTAVYYCARSGGLWLAFWGQGTLVTVSSGGGGSGGGGSGGGGSDIVMTQSPDSLAVSLGERATINCKSSQTLLNSVSQNNYLAWYQQKPGQSPTLLIYFASTRESGVPDRFSGSGSGTDFTLTISSLQAEDVAVYYCQQHYRTPYTFGGGTKVEIK . State its measured OD450 nm.
0.1

Consider the binder F2.39.3-H9 (scFv, not shown: small tags and cut ends, also called S009-F2.39.3 humanized VH3 + VL1) scFv: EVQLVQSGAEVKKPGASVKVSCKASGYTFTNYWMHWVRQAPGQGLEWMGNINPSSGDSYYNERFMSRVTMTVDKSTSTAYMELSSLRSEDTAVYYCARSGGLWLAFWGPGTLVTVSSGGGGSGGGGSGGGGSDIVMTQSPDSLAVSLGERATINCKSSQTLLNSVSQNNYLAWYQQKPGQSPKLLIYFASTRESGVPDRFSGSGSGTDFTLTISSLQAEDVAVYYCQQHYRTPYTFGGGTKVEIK . State its measured OD450 nm.
0.11

Consider the binder F2.39.3-H5 (scFv, not shown: small tags and cut ends, also called S009-F2.39.3 humanized VH2 + VL1) scFv: EVQLVQSGAEVKKPGASVKVSCKASGYTFTNYWMHWVRQAPGQGLEWMGNINPSSGDSYYNERFMSRVTMTVDKSTSTAYMELSSLRSEDTAVYYCARSGGLWLAFWGQGTLVTVSSGGGGSGGGGSGGGGSDIVMTQSPDSLAVSLGERATINCKSSQTLLNSVSQNNYLAWYQQKPGQSPKLLIYFASTRESGVPDRFSGSGSGTDFTLTISSLQAEDVAVYYCQQHYRTPYTFGGGTKVEIK . State its measured OD450 nm.
0.11

Consider the additional binder presented here.
Consider the binder F2.39.3-H2 (scFv, not shown: small tags and cut ends, also called S009-F2.39.3 humanized VH1 + VL2) scFv: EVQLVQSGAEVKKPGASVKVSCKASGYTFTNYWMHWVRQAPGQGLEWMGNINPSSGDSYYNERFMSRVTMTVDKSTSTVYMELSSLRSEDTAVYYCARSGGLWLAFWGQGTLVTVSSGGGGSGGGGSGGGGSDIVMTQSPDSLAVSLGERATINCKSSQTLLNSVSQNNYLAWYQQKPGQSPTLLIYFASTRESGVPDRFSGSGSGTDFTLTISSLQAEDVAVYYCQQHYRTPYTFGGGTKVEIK . State its measured OD450 nm.
0.1
